Listed compounds paired with reported inhibition of PMA-induced ear swelling vs vehicle control
System: PMA-induced ear swelling
Assay: PMA-induced mouse ear swelling (topical anti-inflammatory activity)
Assay type: in vivo, CD-1 (Crl.) derived male mice
Settings: topical 3 mg/ear applied 30 min before and 15 min after PMA, measured 6 hours after PMA, >=30% considered significant
Express your answer in %, writing the number without its unit.

Illustrative cases are given below, each with its answer.
compound=COC(=O)Cc1ccccc1Nc1ccnc2cc(C(F)(F)F)ccc12 readout_value=20
compound="COc1ccc2c(c1)c(CC(=O)O)c(C)n2C(=O)c1ccc(Cl)cc1 [Indomethacin, reference compound]" readout_value=77
compound=O=C([O-])Cc1ccccc1Nc1ccnc2cc(C(F)(F)F)ccc12.[Na+] readout_value=80

Attention now shifts to the item below.
Form field inhibition of PMA-induced ear swelling vs vehicle control, entry Cl.O=C(O)Cc1ccccc1Nc1ccnc2cc(C(F)(F)F)ccc12 : 75
